Assay: In vivo pharmacokinetics in plasma
Set-up: species or system mouse
Settings: male, CD1, mouse, ip; plasma, mice, 10 mg/kg intraperitoneal, single dose
measured-attribute: Cmax (ng/mL)
Kindly answer with a numeric value in ng/mL, unit omitted.

Prompt line: Give the value of Cmax reported for the following: CCOP(=O)(OCC)[C@]1(c2ccccc2)N=C[C@H]2C(=O)N(c3ccc(F)c(Cl)c3)C(=O)[C@H]21 (racemic)
Response line: 950

* * *

Experiment: In vivo pharmacokinetics in plasma
Set-up: species or system mouse
Details: male, CD1, mouse, plasma, ip, 10 mg/kg, mice, 10 mg/kg intraperitoneal
measured-attribute: half-life (h)
Kindly answer with a numeric value in h, unit omitted.

Prompt line: Give the value of half-life reported for the following: CCOP(=O)(OCC)[C@]1(c2ccccc2)N=C[C@H]2C(=O)N(c3ccc(F)c(Cl)c3)C(=O)[C@H]21 (racemic)
Response line: 5.21
